system: MDCK; format: cell-based, Canis lupus familiaris; conditions: dog, 72 h
Counter-ions that a name gives are not always drawn.
Some compounds, each annotated with its measured CC50.
property: CC50 (µM)

| compound | measurementUnit | sign | endpointResult |
| --- | --- | --- | --- |
| C1CC2C1C1CCC2C2CNCC12 (centres undefined) | µM | = | 1.9 |
| C1=CC2C3CC3C1C1CN(C3CCNCC3)CC21 (centres undefined) | µM | = | 46 |
| C1=CC2C1C1C=CC2C2CNCC12 (centres undefined) | µM | = | 4.9 |
| N=C(N)N1CC2C3C=CC(C4C=CC43)C2C1 (centres undefined) | µM | = | 9.4 |
| NC12CC3CC(CC(C3)C1)C2 [AMANTADINE] | µM | > | 500 |
| CC12CC34CN(C(=N)N)CC35CC1(C)C(C)(C5)C2(C)C4 (centres undefined) | µM | = | 15 |
| N=C(N)N1CC2C3CCC(C4CC34)C2C1 (centres undefined) | µM | = | 41 |
| C1CC(N2CC3C4CCC(C5CC45)C3C2)CCN1 (centres undefined) | µM | = | 9 |
| CC12CC34CNCC35CC1(C)C(C)(C5)C2(C)C4 (centres undefined) | µM | = | 49 |
| N=C(N)N1CC2C3CCC(C4CCC43)C2C1 (centres undefined) | µM | = | 1.9 |
| N=C(N)N1CC2C3C=CC(C4CC34)C2C1 (centres undefined) | µM | = | 39 |
| CC(N)C12CC3CC(CC(C3)C1)C2 (centres undefined) [RIMANTADINE HYDROCHLORIDE] | µM | = | 230 |
| C1=CC2C3CNCC3C1C1CC21 (centres undefined) | µM | = | 54 |
| C1CC2C3CNCC3C1C1CC21 (centres undefined) | µM | = | 49 |
